Read-out: Cytochrome P450 3A7 (Homo sapiens) (UniProt P24462)
Sequence (P24462 whole entry, looked up): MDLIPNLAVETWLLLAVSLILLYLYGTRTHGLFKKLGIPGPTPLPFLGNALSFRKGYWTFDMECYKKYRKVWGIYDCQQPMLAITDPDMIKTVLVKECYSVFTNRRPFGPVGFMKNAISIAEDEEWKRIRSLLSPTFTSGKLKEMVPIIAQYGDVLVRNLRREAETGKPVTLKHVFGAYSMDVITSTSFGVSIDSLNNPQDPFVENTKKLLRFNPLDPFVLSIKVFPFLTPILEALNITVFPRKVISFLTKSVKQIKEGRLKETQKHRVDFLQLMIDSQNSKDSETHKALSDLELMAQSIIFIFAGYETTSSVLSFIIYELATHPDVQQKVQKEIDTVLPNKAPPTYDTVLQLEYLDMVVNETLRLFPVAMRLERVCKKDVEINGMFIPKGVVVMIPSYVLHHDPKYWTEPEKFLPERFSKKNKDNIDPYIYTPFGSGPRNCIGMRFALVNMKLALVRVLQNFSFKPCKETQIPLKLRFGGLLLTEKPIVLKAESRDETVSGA
Assay: LTEA_HepaRG_CYP3A7: Life Technologies and Expression Analysis (LTEA) Assay for CYP3A7 using HepaRG (AID 2283492)
Conditions: mRNA level, 48 h; actives raise or lower the signal
The source made the active and inactive calls. Rule for the calls: active = hit-call score of the fitted dose curve at least 0.9, where 1 is the maximum; inactive = score below 0.9.
Hi there, use one of these labels in your reply, thanks! Y (active), N (inactive)

IN: Hi team, can someone confirm the assay call for CCc1ccc(C(=O)NN(C(=O)c2cc(C)cc(C)c2)C(C)(C)C)cc1 ?
OUT: Y

IN: Hi team, can someone confirm the assay call for CC(C)OC(=O)Nc1cccc(Cl)c1 ?
OUT: N

----------
Read-out: Lipase C (LIPC), LIPC (gene 3990)
Experiment: LTEA_HepaRG_LIPC: Life Technologies and Expression Analysis (LTEA) Assay for Lipase C (LIPC) using HepaRG (AID 2283514)
Settings: mRNA level, 48 h; actives raise or lower the signal
The source made the active and inactive calls. The calls were made as follows: active = hit-call score of the fitted dose curve at least 0.9, where 1 is the maximum; inactive = score below 0.9.
Hi there, use one of these labels in your reply, thanks! 1.0 (active), 0.0 (inactive)

CCc1ccc(C(=O)NN(C(=O)c2cc(C)cc(C)c2)C(C)(C)C)cc1; 0.0
CCC(C)(NC(=O)c1cc(Cl)c(C)c(Cl)c1)C(=O)CCl (stereo unspecified); 1.0
COP(=S)(OC)Oc1ccc(SC)c(C)c1; 0.0
C[C@H]1[C@H](c2ccc(Cl)cc2)SC(=O)N1C(=O)NC1CCCCC1; 1.0
COP(=O)(OC)OC=C(Cl)Cl; 0.0

For the next question, use this compound.
IN: Hi team, can someone confirm the assay call for O=C(O)COc1ccc(Cl)cc1Cl ?
OUT: 0.0

----------
Read-out: solute carrier (SLCO1B1), SLCO1B1 (gene 10599)
Experiment: LTEA_HepaRG_SLCO1B1: Life Technologies and Expression Analysis (LTEA) Assay for solute carrier (SLCO1B1) using HepaRG (AID 2283530)
Conditions: mRNA level, 48 h; actives raise or lower the signal
Procedure: LTEA_HepaRG is a cell based, multiplexed-readout assay that uses HepaRG, a human liver cell line, with measurements taken at 48 hours after chemical dosing on a 96-well plate.LTEA_HepaRG_SLCO1B1 is one of 102 assay component(s) measured in the LTEA HepaRG cell culture assay. It is a marker of NR mediated transport.Data from the assay component LTEA_HepaRG_SLCO1B1 was analyzed into 1 endpoint. […]
Calls of active or inactive are those of the source. The calls were made as follows: active = hit-call score of the fitted dose curve at least 0.9, where 1 is the maximum; inactive = score below 0.9.
Hi there, use one of these labels in your reply, thanks! active, inactive

OCCOc1ccccc1; inactive

For the next question, use this compound.
IN: Hi team, can someone confirm the assay call for CC(C)(C)C(O)C(Oc1ccc(Cl)cc1)n1cncn1 (stereo not drawn) ?
OUT: inactive

----------
Read-out: Human Leukocyte Antigen - DR isotype (HLADR), HLA-DRA (gene 3122)
Experiment: BSK_CASM3C_HLADR: BioMAP Diversity Plus: CASM3C Assay for Human Leukocyte Antigen - DR isotype (HLADR) Biomarker Activity (AID 2283043);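 note: cell-surface HLA-DR protein level quantified by ELISA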
Settings: primary human coronary artery smooth muscle cells; actives raise or lower the signal
Active and inactive are the calls of the source. How the source made its calls: active means hit-call score of the fitted dose curve at least 0.9, where 1 is the maximum; inactive means score below 0.9.
PROPERTY: AC50

OCCOc1ccccc1; inactive
Oc1cc(Cl)ccc1Oc1ccc(Cl)cc1Cl; 29.4 µM (active) [middle of 4 runs]
COC(=O)c1ccccc1CS(=O)(=O)NC(=O)Nc1nc(OC)cc(OC)n1; inactive
O=S(=O)(O)C(F)(F)C(F)(F)C(F)(F)C(F)(F)C(F)(F)C(F)(F)C(F)(F)C(F)(F)F; inactive

For the 2 compounds below, give their AC50 values.
1. CCc1ccc(C(=O)NN(C(=O)c2cc(C)cc(C)c2)C(C)(C)C)cc1
2. Clc1ccccc1-c1nnc(-c2ccccc2Cl)nn1

OUT:
inactive
inactive

Origin of values: PubChem BioAssay (EPA / NIEHS)
